- system: Env of HIV-1 strain 3016.v5.c45 (HIV-1)
- assay_remarks: cell-based or functional assay
observed_property: neutralization IC50
Reply with the number, then its unit.

Q: Fill in: neutralization IC50 of γ3κ18 (antibody, V domains shown) VH: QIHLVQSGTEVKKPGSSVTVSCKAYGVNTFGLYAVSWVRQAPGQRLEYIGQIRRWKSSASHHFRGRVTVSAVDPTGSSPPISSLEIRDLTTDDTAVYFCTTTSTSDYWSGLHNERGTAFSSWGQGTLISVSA VL: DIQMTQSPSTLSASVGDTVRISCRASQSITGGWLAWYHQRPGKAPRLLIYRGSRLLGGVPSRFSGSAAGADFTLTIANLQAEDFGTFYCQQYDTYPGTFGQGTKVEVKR is ___
A: 0.057 µg/mL

Q: For γ52κ5 (antibody, V domains shown) VH: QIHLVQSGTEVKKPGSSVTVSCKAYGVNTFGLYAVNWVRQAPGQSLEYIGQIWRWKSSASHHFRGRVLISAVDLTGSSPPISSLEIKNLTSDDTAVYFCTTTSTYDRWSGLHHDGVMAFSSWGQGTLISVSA VL: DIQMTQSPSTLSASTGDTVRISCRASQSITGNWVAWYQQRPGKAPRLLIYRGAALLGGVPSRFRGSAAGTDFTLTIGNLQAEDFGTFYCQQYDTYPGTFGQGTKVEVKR , what is its reported neutralization IC50?
A: 0.017 µg/mL

Q: Item under review: γ23κ5 (antibody, V domains shown) VH: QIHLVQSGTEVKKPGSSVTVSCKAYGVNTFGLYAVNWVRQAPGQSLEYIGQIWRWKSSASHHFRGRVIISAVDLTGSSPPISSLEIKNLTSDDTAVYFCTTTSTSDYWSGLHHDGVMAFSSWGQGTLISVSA VL: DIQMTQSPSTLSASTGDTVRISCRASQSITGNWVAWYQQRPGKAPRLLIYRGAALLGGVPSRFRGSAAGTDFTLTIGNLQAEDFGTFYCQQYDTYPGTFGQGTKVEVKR . Reported neutralization IC50?
A: 0.091 µg/mL
